FYI, the data here is from patent US20080021217A1.

- Target: recombinant N-terminal GST-tagged human Rho kinase 1 (ROCK1, amino acids 1-535) (Homo sapiens)
- Construct: ROCK1, amino acids 1-535, Invitrogen Inc., cat. #PV-3691; GST (N)
- Sequence (Q13464 1-535): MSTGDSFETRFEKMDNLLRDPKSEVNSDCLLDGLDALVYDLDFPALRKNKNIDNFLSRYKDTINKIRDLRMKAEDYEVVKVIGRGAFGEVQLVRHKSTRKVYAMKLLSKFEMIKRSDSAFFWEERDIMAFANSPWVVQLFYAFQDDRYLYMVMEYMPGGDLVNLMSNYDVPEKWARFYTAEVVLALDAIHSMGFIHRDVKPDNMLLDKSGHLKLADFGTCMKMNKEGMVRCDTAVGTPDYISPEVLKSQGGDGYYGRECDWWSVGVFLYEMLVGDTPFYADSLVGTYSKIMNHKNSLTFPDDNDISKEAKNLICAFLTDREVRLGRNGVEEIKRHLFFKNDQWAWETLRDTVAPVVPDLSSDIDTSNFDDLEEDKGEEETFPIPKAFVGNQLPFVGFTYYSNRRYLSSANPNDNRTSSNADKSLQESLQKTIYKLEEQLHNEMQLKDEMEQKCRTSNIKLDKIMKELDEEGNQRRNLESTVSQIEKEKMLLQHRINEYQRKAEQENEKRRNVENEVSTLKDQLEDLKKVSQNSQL
- Experiment description: In vitro Rho kinase assay (luciferase-based ATP consumption), ROCK1
pIC50: −log10 of the molar value.
Parameter: pIC50. Scope: all listed entries.

Below: 3 molecules and their reported pIC50.
INSERT INTO assay_data (molecule, measured) VALUES
  ('COc1cccc(C(=O)NCc2nc(-c3ccncc3)no2)c1', '< 5.30'),
  ('CS(=O)(=O)Nc1cccc(C(=O)NCc2nc(-c3ccncc3)n[nH]2)c1', '< 5.30'),
  ('Cc1cccc(C(=O)NCc2c[nH]c(-c3ccncc3)n2)c1O', '< 5.30');

Give me measured pIC50, please, for this molecule: `CC(C)(C)C(=O)Oc1ccc(C(=O)NCc2nc(-c3ccncc3)n[nH]2)c(O)c1`
> 5.30

Give me measured pIC50, please, for this molecule: `O=C(NCc1cc(-c2ccncc2)n[nH]1)c1ccc(O)cc1O`
> 5.30

Give me measured pIC50, please, for this molecule: `Cc1c(O)ccc(C(=O)NCc2nc(-c3ccncc3)n[nH]2)c1O`
> 5.30

Give me measured pIC50, please, for this molecule: `COc1ccc(C(=O)NCc2nc(-c3ccncc3)n[nH]2)cc1C`
< 5.30
